Entries and their hERG current change (%, negative = inhibition) at 10uM values follow.
- tested-on: human ether-à-go-go-related gene (hERG) potassium channel (human, UniProt Q12809)
- Sequence (Q12809 whole entry, looked up): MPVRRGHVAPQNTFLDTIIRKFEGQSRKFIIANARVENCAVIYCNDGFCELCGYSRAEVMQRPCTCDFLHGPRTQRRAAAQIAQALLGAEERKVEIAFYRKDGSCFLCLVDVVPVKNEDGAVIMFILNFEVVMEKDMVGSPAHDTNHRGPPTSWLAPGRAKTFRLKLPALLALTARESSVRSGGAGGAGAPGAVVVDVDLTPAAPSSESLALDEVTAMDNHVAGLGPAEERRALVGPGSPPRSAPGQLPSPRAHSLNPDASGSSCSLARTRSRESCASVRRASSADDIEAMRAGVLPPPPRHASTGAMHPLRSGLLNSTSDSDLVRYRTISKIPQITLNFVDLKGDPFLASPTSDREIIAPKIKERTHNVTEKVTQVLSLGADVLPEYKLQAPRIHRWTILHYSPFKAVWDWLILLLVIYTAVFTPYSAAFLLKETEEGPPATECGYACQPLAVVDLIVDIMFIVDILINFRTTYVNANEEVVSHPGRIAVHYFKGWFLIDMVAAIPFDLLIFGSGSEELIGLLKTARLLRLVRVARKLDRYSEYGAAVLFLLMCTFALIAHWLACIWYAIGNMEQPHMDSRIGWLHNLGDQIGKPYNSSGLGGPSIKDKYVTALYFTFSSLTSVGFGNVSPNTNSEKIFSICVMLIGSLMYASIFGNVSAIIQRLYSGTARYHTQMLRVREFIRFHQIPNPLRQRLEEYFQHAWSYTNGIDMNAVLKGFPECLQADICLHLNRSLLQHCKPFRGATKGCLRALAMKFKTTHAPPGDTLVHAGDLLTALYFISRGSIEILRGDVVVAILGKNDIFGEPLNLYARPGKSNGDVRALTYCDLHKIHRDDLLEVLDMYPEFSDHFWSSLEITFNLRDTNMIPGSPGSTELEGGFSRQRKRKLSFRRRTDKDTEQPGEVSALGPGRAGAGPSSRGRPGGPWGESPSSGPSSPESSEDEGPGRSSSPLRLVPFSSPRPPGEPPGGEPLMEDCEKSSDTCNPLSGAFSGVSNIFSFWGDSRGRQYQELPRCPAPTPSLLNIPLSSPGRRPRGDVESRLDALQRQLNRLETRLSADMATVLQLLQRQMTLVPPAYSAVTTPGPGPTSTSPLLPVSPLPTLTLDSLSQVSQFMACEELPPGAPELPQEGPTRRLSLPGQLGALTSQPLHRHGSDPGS
- measurement-protocol: primary screen, population patch clamp on CHO cells stably expressing hERG; higher = less effect of the substance
Out of some 310,000 compounds screened, about 14,000 (4.5%) showed an effect of 50% or more. Effects have a minus sign here. What follows is part of a selection rich in strong results, with near analogues and random picks from the rest.
Response body: numeric value in %, unit text excluded.

The examples below pair each entry with its known result.
COCc1cc(=O)[nH]c(Sc2c(-c3ccccc3)c3ccc(Cl)cc3[nH]c2=O)n1 = 20.4
O=C(CCS(=O)(=O)Cc1ccccc1F)NCCCN1CCCCC1 = 8.31
Cc1ccc(C(=O)Nc2ccc3c4c(cccc24)CC3)cc1[N+](=O)[O-] = -1.54
O=C(Nc1ccc(N2CCN(C(=O)c3ccccc3)CC2)c(Cl)c1)c1ccco1 = -29.5
N#Cc1ccc(-c2csc(-c3ccno3)n2)cc1 = -14.6
Cn1nnnc1SCCNCc1ccccc1OCc1ccccc1 = -9.36
COc1cc(CNCCSc2nnnn2C)cc(Br)c1OCc1ccccc1.Cl = -56.3
O=C(O)c1ccc(N/N=C/c2cccc(C(F)(F)F)c2)cc1 = 27.3

**Q:** Which measured hERG current change (%, negative = inhibition) at 10uM belongs to `O=C(Nc1ccc(N2CCN(C(=O)c3ccccc3)CC2)c(Cl)c1)c1ccc(Br)o1` , tested on human ether-à-go-go-related gene (hERG) potassium channel (human, UniProt Q12809)?
**A:** -58.2

**Q:** Which measured hERG current change (%, negative = inhibition) at 10uM belongs to `O=C(/C=C\Nc1ccc2c(c1)OCO2)c1cccs1` , tested on human ether-à-go-go-related gene (hERG) potassium channel (human, UniProt Q12809)?
**A:** 17.6

**Q:** Which measured hERG current change (%, negative = inhibition) at 10uM belongs to `COc1cc(CNCCSc2nnnn2C)cc(Br)c1OCc1ccc(F)cc1.Cl` , tested on human ether-à-go-go-related gene (hERG) potassium channel (human, UniProt Q12809)?;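 also: peak tail current of the secondary pulse compared with the same well before compound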
**A:** -43.9

**Q:** Which measured hERG current change (%, negative = inhibition) at 10uM belongs to `COc1ccc(C)cc1NC(=O)CSCc1ccccc1C` , tested on human ether-à-go-go-related gene (hERG) potassium channel (human, UniProt Q12809)?;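 also: peak tail current of the secondary pulse compared with the same well before compound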
**A:** -4

**Q:** Which measured hERG current change (%, negative = inhibition) at 10uM belongs to `Cc1ccc(C(=O)Nc2cnc3ccccn3c2=O)cc1` , tested on human ether-à-go-go-related gene (hERG) potassium channel (human, UniProt Q12809)?;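 also: peak tail current of the secondary pulse compared with the same well before compound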
**A:** -17.2

**Q:** Which measured hERG current change (%, negative = inhibition) at 10uM belongs to `Cc1ccc(NS(=O)(=O)c2ccc(-c3ccc(=O)[nH]n3)o2)cc1N(C)C` , tested on human ether-à-go-go-related gene (hERG) potassium channel (human, UniProt Q12809)?;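 also: peak tail current of the secondary pulse compared with the same well before compound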
**A:** 1.5

====

Entries and their hERG current change (%, negative = inhibition) at 10uM values follow.
- tested-on: human ether-à-go-go-related gene (hERG) potassium channel (human)
- measurement-protocol: primary screen, population patch clamp on CHO cells stably expressing hERG; higher = less effect of the substance
Hit rate of the full screen: of about 310,000 compounds, about 14,000 (4.5%) showed an effect of 50% or more. The effect is printed as a negative number. What follows is part of a selection rich in strong results, with near analogues and random picks from the rest.
Response body: numeric value in %, unit text excluded.

The examples below pair each entry with its known result.
CCOC(=O)c1cccc(OCC(O)CNCCOc2ccccc2F)c1 (centres unmarked) = -63
CC1Sc2ccc(S(=O)(=O)N3CCC(C(=O)N(C)Cc4ccco4)CC3)cc2NC1=O (centres unmarked) = -24.7
Cc1ccc(NS(=O)(=O)c2ccc(Br)s2)nc1 = 23.4
COc1ccc(Cn2cc([N+](=O)[O-])nc2C)cc1[N+](=O)[O-] = -2.26
Cc1nnc(NC(=O)c2ccc(-c3ccc([N+](=O)[O-])cc3)o2)s1 = -11.7
Cc1cc(C)n2nc(C(=O)OC(C)C(=O)c3ccccc3)nc2n1 (centres unmarked) = 17.9

**Q:** Given COCCCNCC(O)COc1ccccc1F (centres unmarked) , state its recorded hERG current change (%, negative = inhibition) at 10uM.
**A:** 5.58

**Q:** Given CC(=O)c1cccc(OCC(O)CNCCOc2ccc(C)cc2)c1 (centres unmarked) , state its recorded hERG current change (%, negative = inhibition) at 10uM.
**A:** -36.5

**Q:** Given `Cc1nc(SCn2nnc3ccccc3c2=O)nc(C)c1C` , state its recorded hERG current change (%, negative = inhibition) at 10uM.
**A:** -12.3

**Q:** Given `COc1ccc(NS(=O)(=O)c2ccc(NC(=O)C3CC3)cc2)cc1` , state its recorded hERG current change (%, negative = inhibition) at 10uM.
**A:** 18.6

**Q:** Given Cn1cnc([N+](=O)[O-])c1SCC(O)CCl (centres unmarked) , state its recorded hERG current change (%, negative = inhibition) at 10uM.
**A:** 15.9

====

- tested-on: human ether-à-go-go-related gene (hERG) potassium channel (human, UniProt Q12809)
- measurement-protocol: primary screen, population patch clamp on CHO cells stably expressing hERG; higher = less effect of the substance
Out of some 310,000 compounds screened, about 14,000 (4.5%) showed an effect of 50% or more. Effects have a minus sign here. The entries come from a sample that favours strong results as a whole.
measured-quantity: hERG current change (%, negative = inhibition) at 10uM (%)
Response body: numeric value in %, unit text excluded.

CN(C)C(=O)Cn1c(SCC(=O)NC2CCCCC2)nc2ccccc21 = 7.7
COc1ccc(S(=O)(=O)N2CCC(C(=O)NCCN3CCOCC3)CC2)cc1 = 14.2
CCOC(=O)c1nnn(CC(=O)Nc2cccc(Cl)c2C)c1C(=O)OCC = 4.51
CC(C)(C)c1ccc(COC(=O)CNC(=O)CNC(=O)Cc2ccccc2)cc1 = -6.93
N#C/C(=C/c1ccncc1)c1nc2ccccc2s1 = 2.23

**Q:** Given `COc1ccc(-c2c(C)nc(N)nc2-c2ccc(OCc3ccc(C)cc3)cc2O)cc1OC` , state its recorded hERG current change (%, negative = inhibition) at 10uM.
**A:** 4.25

**Q:** Given `COc1cnc(SCc2c(Cl)cccc2Cl)nc1Cl` , state its recorded hERG current change (%, negative = inhibition) at 10uM.
**A:** -1.4

**Q:** Given `CN(C(=O)c1ccccc1C(=O)OCC(=O)Nc1ccc(S(N)(=O)=O)cc1)c1ccccc1` , state its recorded hERG current change (%, negative = inhibition) at 10uM.
**A:** -5.32

**Q:** Given `O=C(CN1CCN(c2ccccc2)CC1)N1CCc2[nH]c3ccccc3c2C1` , state its recorded hERG current change (%, negative = inhibition) at 10uM.
**A:** -26.9

**Q:** Given `CN(C(=O)c1ccccc1C(=O)OCC(=O)Nc1ccccc1)c1ccccc1` , state its recorded hERG current change (%, negative = inhibition) at 10uM.
**A:** 0.655

====

- tested-on: human ether-à-go-go-related gene (hERG) potassium channel (human)
- measurement-protocol: primary screen, population patch clamp on CHO cells stably expressing hERG; higher = less effect of the substance
Among all 310,000 compounds or so, about 14,000 (4.5%) showed an effect of 50% or more. Effects have a minus sign here. The entries come from a sample that favours strong results as a whole.
Entries and their hERG current change (%, negative = inhibition) at 10uM values follow.
Response body: numeric value in %, unit text excluded.

CCc1cc(C(=O)N(C)CC(=O)Nc2c(Cl)cccc2Cl)sc1C = -2.89
Cc1ccc(C(=O)OC2CCOC2=O)cc1NC(=O)c1ccco1 (stereo not shown) = 0.0901
COc1ccc(C(=O)NCc2nnc(SCC(=O)c3ccccc3)n2C)cc1OC = -18.2
Cc1ccc(S(=O)(=O)NC(C)(C)CSc2nncn2N)cc1 = 9.75
Cc1cc(C)c2c(=O)[nH]c(SCC(=O)Nc3ccc(N(C)C)cc3)nc2n1 = -2.77
NC(=S)NNc1ccc(Cl)c(Cl)c1 = 16.3
COc1cc(C(=O)Nc2nc3ccc4nc(C)sc4c3s2)cc(OC)c1OC = -5.34
Cc1ccc(C(=O)NCC(=O)O)o1 = -5.14

**Q:** Given `C=CCOc1ccccc1CNCc1cccnc1.Cl` , state its recorded hERG current change (%, negative = inhibition) at 10uM.
**A:** 12.6

**Q:** Given `CCOC(=O)Cn1c(=O)oc2cc(S(=O)(=O)Nc3cc(OCC)ccc3OCC)ccc21` , state its recorded hERG current change (%, negative = inhibition) at 10uM.
**A:** -42.3
